- System: RXF 393
- procedure details: NCI tumour cell line growth inhibition, 48 h
The source made the active and inactive calls. Rule as the data show it: active = GI50 up to about 1.1 µM and inactive = higher.
measure name: GI50

For record `CC(=O)c1ccc2c3c1[C@@H]1O[C@@H]1c1cccc(c1-3)[C@@H]1O[C@H]21` the listed GI50 is 11.5 µM (inactive)

Given item `COc1ccccc1/C=C1\Sc2scc(-c3ccc(O)c(O)c3)[n+]2C1=O` , the value recorded as its GI50 is 17.7 µM (inactive)

Record summary for O=C1c2ccccc2C2C1C(c1ccccc1)C1(Cc3ccccc3C1=O)C2c1ccccc1 (stereo not given) : reported GI50 = > 100 µM (inactive)

Quick note, GI50 for CCCC1C(C#N)(C#N)C(C#N)=C(N)C1(C)C(C)=O (stereo not given) landed at 71 µM (inactive)

The reported GI50 of the compound `CCCCn1c(O)nc2c(N)ncnc21` was > 100 µM (inactive)

###

- Test system: SK-MEL-2
- procedure details: NCI tumour cell line growth inhibition, 48 h
Active and inactive are the calls of the source. No stated cut-off is given here; in the data, active = GI50 up to about 1.1 µM and inactive = higher.
// allowed return values: active, inactive

Per the assay record, what outcome was assigned to CCN(CC)C1Oc2cc3c(cc2C(c2cc(OC)c(OC)c(OC)c2)C1C)OCO3 (stereo not drawn) ?
active

What outcome does the record of this test show for `Cc1ccsc1/C=N/Nc1ccccn1` ?
inactive

Recorded test outcome, item `C[n+]1c2ccccc2c(C(=O)Nc2ccc(S(=O)(=O)Nc3ncccn3)cc2)c2ccccc21`
inactive

Test call for this molecule, please: OC12CCC3(O)c4ccccc4C3C1c1ccccc12 (stereo not drawn)
inactive

Recorded test call requested for CN1N=C(c2ccncc2)OC1c1cccc(C(F)(F)F)c1 (stereo not drawn)
inactive

Could you kindly confirm the outcome this assay logged for `CC(C)CC1C(=O)OC(C)(C)OC1=O` ?
inactive

Please state the recorded outcome for this molecule: CCOC(=O)c1c(-c2ccc(Cl)cc2)c(C#N)c(=S)n(C2OC(CO)C(O)C(O)C2O)c1-c1ccccc1 (stereo not drawn)
inactive

Write down the call the test reported for this molecule. Item: CC12OC3CC(O1)C1(C=O)C4CCC5(C)C(c6ccc(=O)oc6)CCC5(O)C4CCC1(C3)O2 (stereo not drawn)
active

Can you look up the reported call for `C=CCSC1=N/C(=C\c2ccc(OC)cc2)C(=O)N1CC=C` for me?
inactive

Lab log entry: `Cc1cccc(C)c1/N=N/c1ccc(O)c(CN(C)C)c1` — outcome as called in the assay?
inactive

Write down the call the test reported for this molecule. Item: `CCOC(=O)c1c(NNc2ccccc2)nc2ccccc2c1-c1ccccc1`
inactive

For this molecule, state the assay outcome: `Cc1ccc2c(=O)c(-c3nnsn3)c[nH]c2n1`
inactive

Record request — test call for `N=c1sc(N2CCOCC2)nn1CC(=O)c1ccccc1`
inactive

Dear colleague, could you share the recorded outcome for `CC(C)C[C@H](NC(=O)[C@H](Cc1ccc(F)cc1)NC(=O)c1ccccn1)B(O)O` when you have a moment?
active

Tell me the recorded outcome of this test for CC(=O)Nc1ccc2[nH]c(C(=O)N3CC(CCl)c4c3cc(N)c3ccccc43)cc2c1 (stereo not drawn) .
active

Which result was noted for this molecule in the test: `N#C/N=C(/N)NCc1ccccc1`
inactive

Entry `Cn1c(N)[n+](C(=O)OCc2ccccc2)c(=O)c2c1ncn2C(=O)OCc1ccccc1` : call = ?
inactive

I'd appreciate the recorded outcome for CC12CC(OC(=O)[C@]1(C)O)[C@@H]([C@]1(O)CC[C@H]3[C@@H]4C[C@H]5O[C@]56[C@@H](O)C=CC(=O)[C@]6(C)[C@H]4CC[C@@]31C)C2 (stereo partly drawn) from this test.
inactive

Can you look up the reported call for `C[C@]12CC[C@H](O)C[C@@H]1CC[C@@H]1[C@@H]2CC[C@]2(C)[C@@H](c3cc(C(F)(F)F)[nH]n3)CC[C@@H]12` for me?
inactive

What was the test verdict on CC1C(=O)OC2CC[N+]3([O-])CC=C(COC(=O)C(C)(O)C1(C)O)C23 (stereo not drawn) ?
inactive

So what was the verdict on Fc1ccc(C2SCc3nc4ccccc4n32)c(F)c1 (stereo not drawn) in this test?
inactive

Recorded call for `CNC(=O)c1cc(NC(=O)N(CCC#N)CCN(C(=O)N[C@@H](Cc2ccccc2)C(=O)N[C@@H](CC(C)C)C(=O)NC)c2ccccc2)ccc1OC` ?
inactive

Hello, I am checking results. What call was entered for `O=P(Oc1ccc(Cl)cc1)(Oc1ccc(Cl)cc1)N1CC1` ?
inactive

Please state the recorded outcome for this molecule: O=C1C2CC=CCC2C(=O)N1n1c(Cc2ccc(Cl)cc2)n[nH]c1=O (stereo not drawn)
inactive

Which outcome did this test record for the molecule Cc1ccc(C2(O)CC(c3ccc([N+](=O)[O-])o3)=NN2C(=O)COc2ccccc2Cl)cc1 (stereo not drawn) ?
inactive

// return assay outcome for `COc1cc(OC)cc(Oc2nc3ccccc3nc2C(F)(F)F)c1`
inactive

Fill in: this test's call for CC(=O)OC1CC[C@@]2(C)C(CC(OC3OC(CO)C(O)C(O)C3O)[C@]3(C)C2CCC24CC23CC[C@H]4C(C)CC(O)[C@@H](O)C(C)(C)O)C1(C)C (stereo partly drawn) is ___
inactive

I would be grateful if you could indicate the recorded call for CC1CN=C(N(Cc2ccc(F)cc2)C(=O)Nc2ccc(Cl)cc2)S1 (stereo not drawn) .
inactive

Dear all, I need the recorded test outcome for COCCNC1CCC2(SCCS2)c2[nH]c3ccccc3c21 (stereo not drawn) , thank you.
inactive

What was the test verdict on `O=c1[nH]cc(/N=C/c2cc(Cl)ccc2O)c(=O)[nH]1` ?
inactive

Recorded test call requested for `Nc1ccc(-c2cc(C(=O)Nc3nccs3)nc(S)n2)cc1`
inactive

Entry Oc1ccc(/C=C/c2cc(O)cc(O)c2)cc1 [RESVERATROL] : call = ?
inactive

Just curious, what result did COC(=O)Cc1c(-c2c(CC(=O)OC)c3ccccc3n2C2OC(COC(C)=O)C(OC(C)=O)C(OC(C)=O)C2OC(C)=O)[nH]c2ccccc12 (stereo not drawn) get here?
inactive

What did the test return for ClC1(Cl)C2CCOC21n1cnc2ccccc21 (stereo not drawn) ?
inactive

Entry `Cn1c(=O)c2c(nc3n(Cc4ccccc4)c(=O)c(NCCBr)cn23)n(C)c1=O` : call = ?
inactive

Would you mind telling me which call this test gave O=C(CC(C(=O)c1cccs1)c1ccccc1)c1ccccc1O (stereo not drawn) ?
inactive

How did this test come out for C/C(=N\O)C(CN(C)C)C(c1ccccc1)c1c(O)c2ccccc2oc1=O (stereo not drawn) ?
inactive

Tell me the recorded outcome of this test for COC(C(=O)C(O)C(C)O)C1CC2C=C3C=C(OC4CC(OC5CC(O)C(OC)C(C)O5)C(OC(C)=O)C(C)O4)C(C)C(O)=C3C(O)=C2C(=O)C1OC1CC(OC2CC(OC3CC(C)(O)C(OC(=O)C(C)C)C(C)O3)C(O)C(C)O2)C(O)C(C)O1 (stereo not drawn) .
active
